Target: MLE dsRBD2 (UniProt P24785 155-257)
Test: filter binding; 5 mM Mg2+; Filter binding: 20 mM HEPES/NaOH pH 8.0, 150 mM NaCl, 5 mM MgCl2, on ice; ITC: 10 mM HEPES pH 8.0, 75 mM NaCl, 2.5 mM MgCl2, 1 mM b-mercaptoethanol, 20 C; NMR:
Settings: protein: recombinant; tags: N-terminal His6 removed by TEV; hairpin
measured-attribute: Kd

Problem: Output measured Kd for this item: GUGUAAAAUGUUGCAAUAUAUAGUAACGUUUUACGC (structured_RNA) [SL7 14merLoop]
Solution: ~22 µM

Data origin: paper PMC6486548
